Biological target: Androgen receptor (Rattus norvegicus, UniProt P15207); note: assay procedure not described here
Sequence (P15207 whole entry): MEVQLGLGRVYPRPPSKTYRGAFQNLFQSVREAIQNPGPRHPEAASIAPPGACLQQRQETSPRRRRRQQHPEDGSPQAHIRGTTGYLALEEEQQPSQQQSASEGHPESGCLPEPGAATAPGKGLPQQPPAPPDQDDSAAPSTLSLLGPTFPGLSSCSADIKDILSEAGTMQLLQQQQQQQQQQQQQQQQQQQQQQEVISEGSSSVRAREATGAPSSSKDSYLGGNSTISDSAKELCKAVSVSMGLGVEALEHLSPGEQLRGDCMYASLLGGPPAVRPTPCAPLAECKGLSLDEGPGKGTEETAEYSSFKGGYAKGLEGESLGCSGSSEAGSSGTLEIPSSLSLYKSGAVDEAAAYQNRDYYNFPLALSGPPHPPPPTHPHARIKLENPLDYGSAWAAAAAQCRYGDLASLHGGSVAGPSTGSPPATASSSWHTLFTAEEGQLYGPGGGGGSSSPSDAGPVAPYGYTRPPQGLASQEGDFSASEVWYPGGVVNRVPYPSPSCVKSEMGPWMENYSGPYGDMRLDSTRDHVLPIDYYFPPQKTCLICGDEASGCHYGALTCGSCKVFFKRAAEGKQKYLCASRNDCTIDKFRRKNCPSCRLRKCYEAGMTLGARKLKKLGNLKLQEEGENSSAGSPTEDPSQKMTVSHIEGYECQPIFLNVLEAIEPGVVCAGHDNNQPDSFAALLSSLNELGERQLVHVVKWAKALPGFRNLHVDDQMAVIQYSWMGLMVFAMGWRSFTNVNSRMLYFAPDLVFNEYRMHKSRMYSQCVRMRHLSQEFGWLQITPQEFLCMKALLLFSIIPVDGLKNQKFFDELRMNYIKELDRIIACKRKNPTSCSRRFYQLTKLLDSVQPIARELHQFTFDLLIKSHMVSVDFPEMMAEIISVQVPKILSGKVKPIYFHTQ
measurement.label: AC50

Below: 2 compounds and their reported AC50.
CN(C)[C@@H]1C(O)=C(C(N)=O)C(=O)[C@@]2(O)C(O)=C3C(=O)c4c(O)ccc(Cl)c4[C@@H](O)[C@H]3C[C@@H]12 ... 2.6 µM
COc1cc2c(cc1OC)C(=O)C(CC1CCN(Cc3ccccc3)CC1)C2 (configuration not stated) ... > 30 µM

[ask] Which AC50 is listed for Nc1nc(N)c2nc(-c3ccccc3)c(N)nc2n1 ?
[reply] > 30 µM

[ask] Which AC50 is listed for CC(C)NCC(O)COc1ccc(COCCOC(C)C)cc1 (configuration not stated) ?
[reply] > 30 µM

[ask] Which AC50 is listed for CCC1(C2=CCCCCC2)C(=O)NC(=O)NC1=O ?
[reply] > 10 µM

[ask] Which AC50 is listed for CC(C)NCC1CCc2cc(CO)c([N+](=O)[O-])cc2N1 (configuration not stated) ?
[reply] > 10 µM

[ask] Which AC50 is listed for CCN1CCC[C@H]1CNC(=O)c1cc(S(N)(=O)=O)ccc1OC [LEVOSULPIRIDE] ?
[reply] > 30 µM

----------
What follows is a collection of AC50 values obtained with Sodium-dependent dopamine transporter (Homo sapiens, UniProt Q01959).
Sequence (Q01959 whole entry): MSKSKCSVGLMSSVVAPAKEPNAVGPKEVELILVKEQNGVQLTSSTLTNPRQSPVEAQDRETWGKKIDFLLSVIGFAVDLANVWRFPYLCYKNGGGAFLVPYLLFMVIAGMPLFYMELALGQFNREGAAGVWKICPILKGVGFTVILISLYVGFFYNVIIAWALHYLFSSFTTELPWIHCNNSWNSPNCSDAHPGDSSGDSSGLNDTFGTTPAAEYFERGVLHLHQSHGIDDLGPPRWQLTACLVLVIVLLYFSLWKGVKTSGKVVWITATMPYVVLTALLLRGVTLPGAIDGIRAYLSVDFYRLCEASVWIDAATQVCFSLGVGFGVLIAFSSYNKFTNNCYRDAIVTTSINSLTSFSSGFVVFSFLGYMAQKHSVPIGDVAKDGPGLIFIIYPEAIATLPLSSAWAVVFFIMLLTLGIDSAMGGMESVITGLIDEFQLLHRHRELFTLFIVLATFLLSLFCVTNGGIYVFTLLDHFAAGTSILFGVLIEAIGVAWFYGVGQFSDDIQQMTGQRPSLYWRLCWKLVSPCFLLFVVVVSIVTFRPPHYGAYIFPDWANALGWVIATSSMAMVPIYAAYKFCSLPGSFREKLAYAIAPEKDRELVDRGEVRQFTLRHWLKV

Below: 2 molecules and their reported AC50.
CC[C@H](C)C(=O)O[C@H]1C[C@H](O)C=C2C=C[C@H](C)[C@H](CC[C@@H](O)C[C@@H](O)CC(=O)O)[C@H]21 ... > 30 µM
NC(CO)C(=O)NNCc1ccc(O)c(O)c1O (stereo not drawn) [BENSERAZIDE] ... > 30 µM

[ask] Which AC50 is listed for CN1CCN(C(=O)OC2c3nccnc3C(=O)N2c2ccc(Cl)cn2)CC1 (stereo not drawn) ?
[reply] > 30 µM

[ask] Which AC50 is listed for Cc1cccc(C)c1OCC(C)N (stereo not drawn) ?
[reply] > 30 µM

----------
What follows is a collection of AC50 values obtained with Motilin receptor (Homo sapiens).
Sequence (O43193 whole entry): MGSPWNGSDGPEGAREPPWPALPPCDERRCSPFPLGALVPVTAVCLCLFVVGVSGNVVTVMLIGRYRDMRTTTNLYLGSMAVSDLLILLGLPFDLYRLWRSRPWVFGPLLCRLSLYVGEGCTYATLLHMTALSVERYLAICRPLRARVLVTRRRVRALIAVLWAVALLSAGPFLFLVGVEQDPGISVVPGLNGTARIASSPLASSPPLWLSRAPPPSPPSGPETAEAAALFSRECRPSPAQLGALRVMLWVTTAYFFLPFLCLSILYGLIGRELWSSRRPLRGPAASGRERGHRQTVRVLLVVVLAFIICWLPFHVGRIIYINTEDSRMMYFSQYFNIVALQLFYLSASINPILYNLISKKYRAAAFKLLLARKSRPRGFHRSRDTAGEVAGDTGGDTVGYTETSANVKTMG

CC(C)[N+](C)(CCC(C(N)=O)(c1ccccc1)c1ccccc1)C(C)C [ISOPROPAMIDE] ... > 10 µM
COc1ccccc1OCC(O)COC(N)=O (centres undefined) [METHOCARBAMOL] ... > 10 µM
NS(=O)(=O)c1cc(-c2nnn[nH]2)c(NCc2cccs2)cc1Cl [AZOSEMIDE] ... > 30 µM
O=C(O)Cc1cn(-c2ccccc2)nc1-c1ccc(Cl)cc1 [LONAZOLAC] ... > 30 µM
NC1=NC(=O)C(c2ccccc2)O1 (centres undefined) [PEMOLINE] ... > 10 µM
CC(C)NCC1CCc2cc(CO)c([N+](=O)[O-])cc2N1 (centres undefined) [OXAMNIQUINE] ... > 10 µM

[ask] Please provide the recorded AC50 for COC(=O)N[C@H](C(=O)N[C@@H](Cc1ccccc1)[C@@H](O)CN(Cc1ccc(-c2ccccn2)cc1)NC(=O)[C@@H](NC(=O)OC)C(C)(C)C)C(C)(C)C [ATAZANAVIR] , tested on Motilin receptor (Homo sapiens). Note: assay procedure not described here.
[reply] 6.4 µM

[ask] Please provide the recorded AC50 for CC(N)Cc1ccccc1 (centres undefined) [AMPHETAMINE] , tested on Motilin receptor (Homo sapiens). Note: assay procedure not described here.
[reply] > 30 µM

[ask] Please provide the recorded AC50 for Cc1cc2c(OCC(CNC(C)(C)C)OC(=O)c3ccccc3)cccc2[nH]1 (centres undefined) [BOPINDOLOL] , tested on Motilin receptor (Homo sapiens). Note: assay procedure not described here.
[reply] 23 µM

----------
What follows is a collection of AC50 values obtained with UniProtKB P28335.
Sequence (P28335 whole entry): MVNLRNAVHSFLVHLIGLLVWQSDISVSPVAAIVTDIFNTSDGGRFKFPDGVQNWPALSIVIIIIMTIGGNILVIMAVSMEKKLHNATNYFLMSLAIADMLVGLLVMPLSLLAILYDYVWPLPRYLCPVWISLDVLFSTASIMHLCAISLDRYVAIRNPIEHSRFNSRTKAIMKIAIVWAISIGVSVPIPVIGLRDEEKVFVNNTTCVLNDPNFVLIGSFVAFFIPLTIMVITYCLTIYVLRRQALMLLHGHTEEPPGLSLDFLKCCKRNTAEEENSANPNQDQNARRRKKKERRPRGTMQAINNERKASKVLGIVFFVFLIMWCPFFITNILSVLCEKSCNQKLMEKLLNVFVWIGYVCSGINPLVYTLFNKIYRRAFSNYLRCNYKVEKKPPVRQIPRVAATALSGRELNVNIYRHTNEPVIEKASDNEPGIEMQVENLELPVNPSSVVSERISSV

Below: 3 compounds and their reported AC50.
CN1CCc2cccc3c2[C@H]1Cc1ccc(O)c(O)c1-3 ... 7.3 µM
CC(C(=O)O)c1ccc(N2CC=CC2)c(Cl)c1 (stereo unspecified) ... > 30 µM
CCN1CCC[C@H]1CNC(=O)c1cc(S(N)(=O)=O)ccc1OC [LEVOSULPIRIDE] ... > 30 µM

[ask] Which AC50 is listed for CC/C=C\C/C=C\C/C=C\CCCCCCCC(=O)O ?
[reply] > 30 µM

[ask] Which AC50 is listed for NS(=O)(=O)c1cc(Cl)c(Cl)c(S(N)(=O)=O)c1 [DICHLORPHENAMIDE] ?
[reply] > 30 µM

[ask] Which AC50 is listed for COC(=O)N[C@H](C(=O)N[C@@H](Cc1ccccc1)[C@@H](O)CN(Cc1ccc(-c2ccccn2)cc1)NC(=O)[C@@H](NC(=O)OC)C(C)(C)C)C(C)(C)C ?
[reply] > 30 µM

----------
target: Glutamate receptor ionotropic, NMDA 1 (Rattus norvegicus, UniProt P35439); note: assay procedure not described here
// reported AC50 per item

Below: 3 molecules and their reported AC50.
CN1C(=O)CC(C)(c2ccccc2)C1=O (stereo unspecified) [METHSUXIMIDE] ... > 10 µM
CC(C)c1c(C(=O)Nc2ccccc2)c(-c2ccccc2)c(-c2ccc(F)cc2)n1CC[C@@H](O)C[C@@H](O)CC(=O)O ... > 10 µM
NC[C@H]1CC[C@H](C(=O)O)CC1 ... > 10 µM

[ask] Please provide the recorded AC50 for Cc1cc(-c2ccccc2)nnc1NCCN1CCOCC1 , tested on Glutamate receptor ionotropic, NMDA 1 (Rattus norvegicus, UniProt P35439). Note: assay procedure not described here.
[reply] > 10 µM

[ask] Please provide the recorded AC50 for CS(=O)(=O)c1ccc([C@@H](O)[C@@H](CO)NC(=O)C(Cl)Cl)cc1 , tested on Glutamate receptor ionotropic, NMDA 1 (Rattus norvegicus, UniProt P35439). Note: assay procedure not described here.
[reply] > 30 µM

[ask] Please provide the recorded AC50 for CCCCCCCCCCCC[N+](C)(C)CCOc1ccccc1 , tested on Glutamate receptor ionotropic, NMDA 1 (Rattus norvegicus, UniProt P35439). Note: assay procedure not described here.
[reply] > 30 µM

[ask] Please provide the recorded AC50 for CCC1(C2=CCCCCC2)C(=O)NC(=O)NC1=O , tested on Glutamate receptor ionotropic, NMDA 1 (Rattus norvegicus, UniProt P35439). Note: assay procedure not described here.
[reply] > 10 µM

[ask] Please provide the recorded AC50 for CN1CC[C@]23CCCC[C@H]2[C@H]1Cc1ccc(O)cc13 , tested on Glutamate receptor ionotropic, NMDA 1 (Rattus norvegicus, UniProt P35439). Note: assay procedure not described here.
[reply] 0.652 µM

[ask] Please provide the recorded AC50 for CCc1nn(CCCN2CCN(c3cccc(Cl)c3)CC2)c(=O)n1CCOc1ccccc1 , tested on Glutamate receptor ionotropic, NMDA 1 (Rattus norvegicus, UniProt P35439). Note: assay procedure not described here.
[reply] > 10 µM

[ask] Please provide the recorded AC50 for CCC[C@@H]1C[C@@H](C(=O)N[C@@H]([C@H]2O[C@H](SC)[C@H](O)[C@@H](O)[C@H]2O)[C@H](C)Cl)N(C)C1 , tested on Glutamate receptor ionotropic, NMDA 1 (Rattus norvegicus, UniProt P35439). Note: assay procedure not described here.
[reply] > 10 µM

[ask] Please provide the recorded AC50 for CCNC(C)Cc1cccc(C(F)(F)F)c1 (stereo unspecified) , tested on Glutamate receptor ionotropic, NMDA 1 (Rattus norvegicus, UniProt P35439). Note: assay procedure not described here.
[reply] > 10 µM
